Target: Dihydroorotate dehydrogenase (quinone), mitochondrial (Plasmodium falciparum (isolate 3D7))
Assay: PfDHODH enzyme inhibitors, primary screen, biochemical, C-terminal His tag, absorbance 600 nm (AID 1175);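 further: recombinant parasite enzyme with a five histidine tag at its C terminus; test concentration not given here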
Conditions: DCIP absorbance 600 nm, higher = more signal, called active from +8 up or from −8 down

[
  {
    "MOLECULE": "O=C1[C@H]2[C@H]3[C@H](O)[C@H](O)CC(=NOC[C@@H](O)COCc4ccco4)[C@@H]3CC[C@H]2C(=O)N1C1CCCCC1",
    "composite z-score": -0.308
  },
  {
    "MOLECULE": "CC(C)=NOC(C)CN1CCCc2nc(C)c(C)cc21 (centres undefined)",
    "composite z-score": 0.787
  },
  {
    "MOLECULE": "CO[C@@H](C1CCCCC1)[C@@H](C)[C@H](OCc1cccc(Br)c1)[C@@H](C)CO",
    "composite z-score": 0.0434
  },
  {
    "MOLECULE": "C=CC[C@@H]1C=C[C@H](ON=C2C[C@@H](O)[C@@H](O)[C@@H]3[C@@H]4C(=O)N(CC)C(=O)[C@@H]4CC[C@@H]23)[C@@H](CO)O1",
    "composite z-score": -2.18
  }
]

###

Assay: binders of probe aFST on microarray, primary screen, stem cell growth factor project, biochemical, small-molecule microarray, fluorescence 635/667 (AID 1086);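 further: score merges 667 nm fluorescence with signal-to-noise of each printed compound spot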
Settings: higher = more signal

[
  {
    "MOLECULE": "COC(=O)[C@H](C)NC(=O)CCC1CC(OC(=O)NCCc2ccc(F)cc2)CC2(CCCC(COC(=O)NCC3CCCCC3)O2)O1 (stereo partly drawn)",
    "composite z-score": 0.486
  },
  {
    "MOLECULE": "CC(C)(C)N1C(=O)[C@H]2[C@@H]3C(=CC[C@H]2C1=O)C(=O)[C@H]1O[C@H]1[C@H]3O",
    "composite z-score": -0.546
  },
  {
    "MOLECULE": "CC(=O)OC[C@H]1O[C@H](C#CCC2CCCCC2)C=C[C@@H]1OC(C)=O",
    "composite z-score": -0.0607
  },
  {
    "MOLECULE": "C[C@H]1CC[C@@H](C(=O)O)N[C@@H]1c1cccc(N2CCCC2=O)c1",
    "composite z-score": 0.149
  },
  {
    "MOLECULE": "COC(=O)[C@H](C)NC(=O)CCC1CC(OC(=O)NCc2cccc3ccccc23)CC2(CCCC(COC(=O)NCc3ccccc3)O2)O1 (stereo partly drawn)",
    "composite z-score": 0.2
  },
  {
    "MOLECULE": "CC(=O)OC[C@H]1O[C@H](CC=NOC(C)CN2CCCc3nc(C)c(C)cc32)C=C[C@@H]1OC(C)=O (stereo partly drawn)",
    "composite z-score": 0.371
  },
  {
    "MOLECULE": "COC(=O)CC=C[C@@H](C)[C@@H](C=NOC[C@@H](O)[C@H]1O[C@@H]2OC(C)(C)O[C@@H]2[C@H]1O)OC",
    "composite z-score": -0.456
  },
  {
    "MOLECULE": "CC(C)=CCCC(C)=CCON=C1C[C@@H](O)[C@@H](O)[C@@H]2[C@@H]3C(=O)N(Cc4ccc5c(c4)OCO5)C(=O)[C@@H]3CC[C@@H]12",
    "composite z-score": 0.396
  }
]

###

System: PRMT1 (protein arginine N-methyltransferase 1)
Assay: PRMT1 binders on small-molecule microarrays, primary screen, biochemical, small-molecule microarray, 635 nm fluorescence (AID 1088);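 further: binding of Prmt1 protein to compounds spotted on small-molecule microarray slides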
Conditions: small-molecule microarray binding, higher = more signal
We use 1 as the dividing line for composite z-score: on or above the line is fulfilled, below is not fulfilled.

[
  {
    "COMPOUND": "CC1(C)O[C@H]2O[C@H]([C@H](O)CON=C3[C@H]4CCn5c(=O)n(-c6ccccc6)c(=O)n5[C@H]4[C@H](O)[C@@H]4O[C@H]34)[C@H](O)[C@H]2O1",
    "ASSIGNED CLASS": "not fulfilled"
  },
  {
    "COMPOUND": "COc1ccc2c(c1)O[C@@H](c1cccc(C(F)(F)F)c1)[C@H](O)C2=O",
    "ASSIGNED CLASS": "not fulfilled"
  },
  {
    "COMPOUND": "CC(C)(C)N1C(=O)[C@H]2[C@H]3[C@H](O)[C@H](O)CC(=NNC(=O)OCc4ccccc4)[C@@H]3CC[C@H]2C1=O",
    "ASSIGNED CLASS": "not fulfilled"
  },
  {
    "COMPOUND": "CC(C)C(=O)N[C@H]1CCCN1C(=O)C=Cc1ccccc1",
    "ASSIGNED CLASS": "not fulfilled"
  },
  {
    "COMPOUND": "CCOC(=O)[C@H](Cc1ccccc1)NC(=O)CCC1CC(OC(=O)NCCc2ccc(F)cc2)CC2(CCCC(COC(=O)NCCC(C)C)O2)O1 (some centres not stated)",
    "ASSIGNED CLASS": "fulfilled"
  },
  {
    "COMPOUND": "CO[C@@H]1COC(=O)[C@H](COCc2ccccc2)NC(=O)CC=C[C@@H](C)[C@H](OC)COC(=O)[C@@H](C)NC(=O)CC=C[C@H]1C",
    "ASSIGNED CLASS": "fulfilled"
  },
  {
    "COMPOUND": "CCc1cc2c(nc1CC)CCN(CCC(C)=NO[C@@H]1O[C@H](COC(C)=O)[C@@H](OC(C)=O)[C@H](OC(C)=O)[C@H]1OC(C)=O)C2",
    "ASSIGNED CLASS": "fulfilled"
  }
]

###

Assay: A549 cell viability effects, profiling panel, calcein-AM fluorescence, 48 h, basal (AID 1162); further: test concentration not given here
Settings: higher = more signal

[
  {
    "MOLECULE": "O=C1C=C[C@@H](O)[C@@H]2[C@@H]3C(=O)N(c4cccc(Oc5ccccc5)c4)C(=O)[C@@H]3CC[C@@H]12",
    "z-score": -0.496
  },
  {
    "MOLECULE": "CCOC(=O)[C@H](CC(C)C)NC(=O)CCC1CC(OC(=O)NCc2ccc3c(c2)OCO3)CC2(CCCC(COC(=O)NCCC(C)C)O2)O1 (some centres undefined)",
    "z-score": 0.0634
  },
  {
    "MOLECULE": "CC(CCN1CCc2nc(-c3ccccc3)c(-c3ccccc3)cc2C1)=NO[C@H](C)c1cn([C@H](CO)Cc2ccccc2)nn1",
    "z-score": 0.75
  },
  {
    "MOLECULE": "Cc1ccc2[nH]c3nc(CCCn4ccnc4-c4ccccc4)nnc3c2c1",
    "z-score": 0.0515
  }
]

###

Test: P. aeruginosa biofilm formation inhibitors, primary screen, PAO1 strain, BacTiter-Glo luminescence, LB-PBS (AID 1144)
Conditions: 12 h, higher = more signal
Calls of active or inactive are those of the source. The rule behind the calls is not given here.
# z-score values compiled below

[
  {
    "COMPOUND": "CCOC(=O)CCN1C(=O)[C@H]2[C@H]3[C@H](O)[C@H](O)CC(=NNC(=O)OCc4ccc(OC)cc4)[C@H]3CC[C@H]2C1=O",
    "z-score": "0.136 (inactive)"
  },
  {
    "COMPOUND": "CCc1cc2c(nc1CC)CCN(CCC(C)=NOC[C@@H](C)[C@H](OCc1ccccc1)C(C)C)C2",
    "z-score": "0.241 (inactive)"
  },
  {
    "COMPOUND": "CC(CCN1CCCCc2nc(C)c(C)cc21)=NO[C@H](C)c1cn([C@@H]2COC[C@H]2O)nn1",
    "z-score": "0.184 (inactive)"
  },
  {
    "COMPOUND": "CCOC(=O)[C@H](Cc1ccccc1)NC(=O)CCC1CC(OC(=O)NCc2ccc3c(c2)OCO3)CC2(CCCC(COC(=O)NCCc3ccc(Cl)cc3)O2)O1 (some centres undefined)",
    "z-score": "-1.89 (inactive)"
  }
]
